# Target or test system: chimeric CD1a pool B protein [human CD1a lipid binding domain, mouse CD1d Ig domain] (human; mouse, UniProt P06126 18-201; P11609 205-297, limits assumed)
# Sequence (P06126 other isoform, or with tags, fused parts or gaps mutant limits assumed): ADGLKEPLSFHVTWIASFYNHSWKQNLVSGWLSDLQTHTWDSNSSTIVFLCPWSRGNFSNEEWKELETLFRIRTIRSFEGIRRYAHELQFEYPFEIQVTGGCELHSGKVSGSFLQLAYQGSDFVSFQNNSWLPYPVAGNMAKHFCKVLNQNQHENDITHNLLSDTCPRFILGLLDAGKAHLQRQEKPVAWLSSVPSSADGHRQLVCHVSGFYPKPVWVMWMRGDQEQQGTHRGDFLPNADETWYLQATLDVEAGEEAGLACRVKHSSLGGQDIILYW
# Experimental protocol: ELISA, 100 µg/ml antibody
Listed here: items and their measured Optical Density (OD).
# output: bare number, implied unit OD

Solved entries (count: 3):
Binder	Units	Reported result
77A (VR11851) (antibody, V domains shown, also called OX77a; antibody 77a) VH: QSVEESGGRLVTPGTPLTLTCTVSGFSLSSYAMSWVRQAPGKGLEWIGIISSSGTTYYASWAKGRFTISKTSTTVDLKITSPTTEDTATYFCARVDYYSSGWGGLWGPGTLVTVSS VL: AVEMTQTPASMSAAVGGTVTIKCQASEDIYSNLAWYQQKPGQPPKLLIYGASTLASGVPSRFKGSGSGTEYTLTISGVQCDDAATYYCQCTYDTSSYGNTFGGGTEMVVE	OD	1.27
110 (VR12112) (antibody, V domains shown, also called OX110; antibody 110) VH: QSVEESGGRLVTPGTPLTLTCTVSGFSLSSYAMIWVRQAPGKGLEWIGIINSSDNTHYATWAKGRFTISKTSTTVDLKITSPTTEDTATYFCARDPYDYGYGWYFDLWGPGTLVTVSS VL: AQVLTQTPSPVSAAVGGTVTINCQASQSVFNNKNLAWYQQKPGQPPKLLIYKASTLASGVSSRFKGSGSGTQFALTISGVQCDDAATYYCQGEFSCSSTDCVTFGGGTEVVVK	OD	1.4
116 (VR12117) (antibody, V domains shown, also called OX116) VH: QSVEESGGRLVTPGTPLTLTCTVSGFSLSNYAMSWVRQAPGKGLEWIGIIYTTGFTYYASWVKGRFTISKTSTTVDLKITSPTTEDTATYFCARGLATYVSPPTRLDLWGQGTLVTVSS VL: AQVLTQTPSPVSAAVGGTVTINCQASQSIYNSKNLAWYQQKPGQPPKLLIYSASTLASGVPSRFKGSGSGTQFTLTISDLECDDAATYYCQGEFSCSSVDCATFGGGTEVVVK	OD	1.37

Q: Need Optical Density (OD) of 111 (VR12113) (antibody, V domains shown, also called OX111) VH: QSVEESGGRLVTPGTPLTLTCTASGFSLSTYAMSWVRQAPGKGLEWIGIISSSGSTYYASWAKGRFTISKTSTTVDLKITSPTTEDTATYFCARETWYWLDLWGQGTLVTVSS VL: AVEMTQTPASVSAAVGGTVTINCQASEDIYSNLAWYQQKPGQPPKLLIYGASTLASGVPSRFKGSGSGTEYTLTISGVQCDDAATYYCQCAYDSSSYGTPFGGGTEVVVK , thanks.
Ans: 1.27

These entries and their values trace back to patent US20250289893A1.
